tested target: Protein kinase C beta type (Homo sapiens)
details: at 1 µM
Please provide measured residual activity for the entries that follow.
Give bare numbers, in %.

# annotated cases, reported residual activity shown
O=C(O)/C=C/c1cc(Br)c(Br)c(Br)c1Br 97
CC(C)(C)n1nc(Cc2cccc3ccccc23)c2c(N)ncnc21 104
CC(C)c1nn(-c2c(Cl)cccc2Cl)c2nc(Cc3ccc(OCCO)cc3)[nH]c(=O)c12 104
O=C1NC(=O)C(c2cn(CCCn3ccnc3)c3ccccc23)=C1Nc1ccccc1 27
CCCCc1c(-c2ccc(OC)cc2)[nH]c2nccnc12 104

Return reported residual activity values for all items listed beneath this line.
1. Nc1ncnc2[nH]nc(Nc3ccc(F)cc3)c12
2. Oc1cccc(-c2nc(N3CCOCC3)c3oc4ncccc4c3n2)c1

Outgoing:
1. 113
2. 98

Incoming: I'd like to know its residual activity. The compound in question is O=c1cc(N2CCNCC2)oc2c(-c3ccccc3)cccc12
Outgoing: 97

###

tested target: Testis-specific serine/threonine-protein kinase 1 (Homo sapiens) (UniProt Q9BXA7)
Sequence (whole entry): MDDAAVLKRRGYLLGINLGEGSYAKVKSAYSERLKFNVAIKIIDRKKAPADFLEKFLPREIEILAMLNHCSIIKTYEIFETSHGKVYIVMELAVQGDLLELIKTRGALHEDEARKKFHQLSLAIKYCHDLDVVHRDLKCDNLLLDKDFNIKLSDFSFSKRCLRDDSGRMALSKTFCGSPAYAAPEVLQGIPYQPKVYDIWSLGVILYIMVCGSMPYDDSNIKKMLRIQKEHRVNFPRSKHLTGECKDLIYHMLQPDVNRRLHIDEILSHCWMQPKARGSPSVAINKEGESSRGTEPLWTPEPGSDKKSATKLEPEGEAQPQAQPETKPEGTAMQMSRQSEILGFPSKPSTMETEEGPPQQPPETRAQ
details: at 10 µM
parameter measured: residual activity
Write the numeric value and follow it with the unit.

CCCCc1c(-c2ccc(OC)cc2)[nH]c2nccnc12 81%
Cc1cc(C)c(/C=C2\C(=O)Nc3ccccc32)[nH]1 75%
Nc1ncnc2c1cnn2-c1ccccc1 87%
O=C1Nc2ccc(Cl)cc2/C1=C/c1cc(Cl)c(O)c(Cl)c1 78%
CCOC(=O)c1c(C)[nH]c(/C=C2\C(=O)Nc3ccccc32)c1C 83%

Provide residual activity values for the following items, in order.
1. O=C1Cc2c([nH]c3ccc(Br)cc23)-c2ccccc2N1
2. O=c1cc(N2CCNCC2)oc2c(-c3ccccc3)cccc12
3. CC(C)(C)n1nc(Cc2cccc3ccccc23)c2c(N)ncnc21
4. O=C(CCCc1ccc(-c2ccccc2F)cc1)Nc1ccc(O)cc1
5. Cn1c2ccccc2c2c3c(c4c5ccccc5n(CCC#N)c4c21)CNC3=O

Outgoing:
["49%", "93%", "90%", "99%", "10%"]

Incoming: Query for Testis-specific serine/threonine-protein kinase 1 (Homo sapiens) (UniProt Q9BXA7): what residual activity does the record show for CCCC(=O)Oc1ccc2[nH]c(C(=O)c3cc4ccccc4[nH]3)cc2c1 ?
Outgoing: 82%

###

tested target: Vascular endothelial growth factor receptor 1 (Homo sapiens)
details: at 10 µM
Exercise: for every item that follows, state its recorded residual activity.
Answers are plain numbers, in %.

Consider the reported residual activity for these compounds:
COc1ccc2c(c1)c(C1=C(c3c[nH]c4ccccc34)C(=O)NC1=O)cn2CCCN(C)C 0
Nc1ncnc2[nH]nc(Nc3ccc(F)cc3)c12 35
COc1cc2nccc(Oc3ccc(NC(=S)NC(=O)c4ccccc4C)cc3)c2cc1OC 0
O=C1Nc2ccc(Cl)cc2/C1=C/c1cc(Cl)c(O)c(Cl)c1 1
Nc1nc(Nc2ccc(S(N)(=O)=O)cc2)nn1C(=O)c1c(F)cccc1F 2
O=S(=O)(NCCNC/C=C/c1ccc(Br)cc1)c1cccc2cnccc12 35

Please find the next compound below.
Incoming: // residual activity lookup, key: O=C1NC(=O)C(c2cn(CCCn3ccnc3)c3ccccc23)=C1Nc1ccccc1
Outgoing: 11

###

tested target: Vascular endothelial growth factor receptor 3 (Homo sapiens)
details: at 10 µM
Task for the reader: assign each of the following compounds its reported residual activity.
Answers are plain numbers, in %.

These recorded examples may help you get a feel for the data.
O=C(CCCc1ccc(-c2ccccc2F)cc1)Nc1ccc(O)cc1 83
O=C1NC(=O)C(c2cn(CCCO)c3ncccc23)=C1c1cnccn1 30
O=C1Nc2ccccc2/C1=C\c1c(Cl)[nH]c2ccccc12 8
Cn1c2ccccc2c2c3c(c4c5ccccc5n(CCC#N)c4c21)CNC3=O 3
NC(=O)Nc1sc(-c2ccc(F)cc2)cc1C(N)=O 0
Nc1ncnc2c1c(-c1ccc(Oc3ccccc3)cc1)cn2C1CCCC1 0

For every item in the list below, what is its measured residual activity?
1. O=C1NC(=O)C(c2c[nH]c3ccccc23)=C1c1c[nH]c2ccccc12
2. O=C(c1ccccc1)c1ccc(N2CCOCC2)cc1O
3. CCCCc1c(-c2ccc(O)cc2)[nH]c2nccnc12
4. CCCCc1c(-c2ccc(OC)cc2)[nH]c2nccnc12
5. O=c1cc(N2CCOCC2)oc2c1ccc1ccccc12

Outgoing:
1. 1
2. 85
3. 2
4. 3
5. 92

###

tested target: Tyrosine-protein kinase SYK (Homo sapiens) (UniProt P43405)
details: at 10 µM
parameter measured: residual activity (%)
Give bare numbers, in %.

Example entries begin here.
COc1ccc(Cl)cc1NC(=O)Nc1cc(C)nc2ccccc12 88
CCN(CC)CCNC(=O)c1c(C)[nH]c(/C=C2\C(=O)Nc3ccc(Cl)cc32)c1C 33
Nc1nc(Nc2ccc(S(N)(=O)=O)cc2)nn1C(=O)c1c(F)cccc1F 11
Nc1ncnc2c1c(-c1ccc(Oc3ccccc3)cc1)cn2C1CCCC1 59
COc1cc2nccc(Oc3ccc(NC(=S)NC(=O)c4ccccc4C)cc3)c2cc1OC 65

List residual activity for every entry below, keeping the order given.
1. COc1cc2c(cc1OC)-c1n[nH]c(Nc3cccc(F)c3)c1C2
2. O=C(CCCc1ccc(-c2ccccc2F)cc1)Nc1ccc(O)cc1
3. O=C1NC(=O)c2c1c1c3ccccc3[nH]c1n1cncc21
4. COc1ccc2c(c1)c(C1=C(c3c[nH]c4ccccc34)C(=O)NC1=O)cn2CCCN(C)C
5. COc1ccc(-c2cnc3c(-c4ccsc4)cnn3c2)cc1

Outgoing:
1: 76; 2: 79; 3: 25; 4: 69; 5: 95

###

Record form. Attribute: residual activity. Fill in for each entry.
tested target: Dual specificity protein kinase CLK2 (Homo sapiens) (UniProt P49760)
Sequence (P49760 whole entry, looked up): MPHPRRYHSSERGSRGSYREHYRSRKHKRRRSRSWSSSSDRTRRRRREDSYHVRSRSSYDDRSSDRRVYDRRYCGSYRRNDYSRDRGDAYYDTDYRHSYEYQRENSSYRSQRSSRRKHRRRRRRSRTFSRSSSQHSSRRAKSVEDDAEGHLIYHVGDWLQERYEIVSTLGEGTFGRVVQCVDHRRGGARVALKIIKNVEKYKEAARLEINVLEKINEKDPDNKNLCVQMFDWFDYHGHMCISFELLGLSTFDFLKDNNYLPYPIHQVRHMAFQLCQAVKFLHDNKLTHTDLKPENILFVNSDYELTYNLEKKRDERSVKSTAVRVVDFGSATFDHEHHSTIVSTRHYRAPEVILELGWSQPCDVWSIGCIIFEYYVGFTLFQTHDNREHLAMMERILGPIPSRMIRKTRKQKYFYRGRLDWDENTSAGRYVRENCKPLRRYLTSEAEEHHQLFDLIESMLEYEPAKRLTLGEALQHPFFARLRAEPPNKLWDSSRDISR
details: at 1 µM
Answers are plain numbers, in %.

Hi team, please reply with residual activity for each item in this list.
1. O=C1NC(=O)C(c2cn(CCCO)c3ncccc23)=C1c1cnccn1
2. CCN(CC)CCNC(=O)c1c(C)[nH]c(/C=C2\C(=O)Nc3ccc(Cl)cc32)c1C
3. COc1cc2ncnc(Nc3cccc(Cl)c3)c2cc1OC
4. CCN1/C(=C/C(C)=O)Sc2ccc(OC)cc21
5. O=C1NC(=O)c2c1c1c3ccccc3[nH]c1n1cncc21
6. CC(C)c1nn(-c2c(Cl)cccc2Cl)c2nc(Cc3ccc(OCCO)cc3)[nH]c(=O)c12
7. O=c1cc(N2CCOCC2)oc2c1ccc1ccccc12

Outgoing:
52
9
110
20
51
38
98

I have 3 molecules here; please give me residual activity for each one.
1. CC(C)(C)n1nc(Cc2cccc3ccccc23)c2c(N)ncnc21
2. CN(C)S(=O)(=O)c1ccc2c(c1)/C(=C/c1cc3c([nH]1)CCCC3)C(=O)N2
3. COc1ccc2c(c1)c(C1=C(c3c[nH]c4ccccc34)C(=O)NC1=O)cn2CCCN(C)C

Outgoing:
[94, 69, 14]

Incoming: Can you share its residual activity? I mean this molecule: O=C1C(Cl)=C(N2C(=O)CCC2=O)C(=O)c2ccccc21
Outgoing: 102

###

Please respond with reported residual activity for every item in the list.
tested target: Homeodomain-interacting protein kinase 3 (Homo sapiens) (UniProt Q9H422)
Sequence (Q9H422 whole entry, looked up): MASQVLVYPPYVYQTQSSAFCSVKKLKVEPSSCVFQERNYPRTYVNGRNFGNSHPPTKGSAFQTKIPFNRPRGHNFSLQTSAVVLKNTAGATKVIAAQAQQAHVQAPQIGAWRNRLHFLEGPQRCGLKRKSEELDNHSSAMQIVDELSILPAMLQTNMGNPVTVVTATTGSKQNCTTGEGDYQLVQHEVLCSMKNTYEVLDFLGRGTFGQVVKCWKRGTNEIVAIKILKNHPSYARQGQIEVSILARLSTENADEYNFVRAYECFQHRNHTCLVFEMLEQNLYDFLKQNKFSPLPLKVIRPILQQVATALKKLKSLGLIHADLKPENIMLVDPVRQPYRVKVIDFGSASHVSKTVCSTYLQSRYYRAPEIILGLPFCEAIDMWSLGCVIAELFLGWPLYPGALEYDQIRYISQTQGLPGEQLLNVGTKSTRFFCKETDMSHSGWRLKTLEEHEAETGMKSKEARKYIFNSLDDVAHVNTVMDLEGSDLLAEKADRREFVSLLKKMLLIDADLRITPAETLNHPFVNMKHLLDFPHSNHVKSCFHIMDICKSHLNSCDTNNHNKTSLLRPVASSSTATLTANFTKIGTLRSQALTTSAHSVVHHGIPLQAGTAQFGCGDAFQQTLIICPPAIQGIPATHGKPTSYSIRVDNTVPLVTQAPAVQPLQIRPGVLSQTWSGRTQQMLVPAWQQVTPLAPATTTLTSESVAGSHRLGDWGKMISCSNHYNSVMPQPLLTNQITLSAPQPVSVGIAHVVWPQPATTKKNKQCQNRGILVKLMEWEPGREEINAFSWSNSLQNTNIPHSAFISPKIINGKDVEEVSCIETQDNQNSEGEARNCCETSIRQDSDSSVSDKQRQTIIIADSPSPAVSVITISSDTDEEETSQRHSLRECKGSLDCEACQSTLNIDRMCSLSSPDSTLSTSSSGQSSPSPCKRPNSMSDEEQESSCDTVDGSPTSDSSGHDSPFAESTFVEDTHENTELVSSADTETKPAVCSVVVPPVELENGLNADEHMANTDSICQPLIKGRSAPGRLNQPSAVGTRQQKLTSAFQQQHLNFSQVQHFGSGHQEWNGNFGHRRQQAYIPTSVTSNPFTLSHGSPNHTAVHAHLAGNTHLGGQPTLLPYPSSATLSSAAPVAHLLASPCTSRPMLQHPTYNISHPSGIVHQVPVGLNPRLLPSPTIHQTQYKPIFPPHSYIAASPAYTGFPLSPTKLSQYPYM
details: at 1 µM
Give bare numbers, in %.

COc1ccc2c(c1)c(C1=C(c3c[nH]c4ccccc34)C(=O)NC1=O)cn2CCCN(C)C 72

Lab note: each molecule below needs its residual activity filled in.
1. O=C(O)/C=C/c1cc(Br)c(Br)c(Br)c1Br
2. CCN1/C(=C/C(C)=O)Sc2ccc(OC)cc21
3. CCN(CC)CCNC(=O)c1c(C)[nH]c(/C=C2\C(=O)Nc3ccc(Cl)cc32)c1C
4. O=C1Nc2ccc(Cl)cc2/C1=C/c1cc(Cl)c(O)c(Cl)c1
5. NC(=O)Nc1sc(-c2ccc(F)cc2)cc1C(N)=O

Outgoing:
[94, 82, 9, 79, 100]

###

tested target: Serine/threonine-protein kinase D1 (Homo sapiens) (UniProt Q15139)
Sequence (Q15139 whole entry): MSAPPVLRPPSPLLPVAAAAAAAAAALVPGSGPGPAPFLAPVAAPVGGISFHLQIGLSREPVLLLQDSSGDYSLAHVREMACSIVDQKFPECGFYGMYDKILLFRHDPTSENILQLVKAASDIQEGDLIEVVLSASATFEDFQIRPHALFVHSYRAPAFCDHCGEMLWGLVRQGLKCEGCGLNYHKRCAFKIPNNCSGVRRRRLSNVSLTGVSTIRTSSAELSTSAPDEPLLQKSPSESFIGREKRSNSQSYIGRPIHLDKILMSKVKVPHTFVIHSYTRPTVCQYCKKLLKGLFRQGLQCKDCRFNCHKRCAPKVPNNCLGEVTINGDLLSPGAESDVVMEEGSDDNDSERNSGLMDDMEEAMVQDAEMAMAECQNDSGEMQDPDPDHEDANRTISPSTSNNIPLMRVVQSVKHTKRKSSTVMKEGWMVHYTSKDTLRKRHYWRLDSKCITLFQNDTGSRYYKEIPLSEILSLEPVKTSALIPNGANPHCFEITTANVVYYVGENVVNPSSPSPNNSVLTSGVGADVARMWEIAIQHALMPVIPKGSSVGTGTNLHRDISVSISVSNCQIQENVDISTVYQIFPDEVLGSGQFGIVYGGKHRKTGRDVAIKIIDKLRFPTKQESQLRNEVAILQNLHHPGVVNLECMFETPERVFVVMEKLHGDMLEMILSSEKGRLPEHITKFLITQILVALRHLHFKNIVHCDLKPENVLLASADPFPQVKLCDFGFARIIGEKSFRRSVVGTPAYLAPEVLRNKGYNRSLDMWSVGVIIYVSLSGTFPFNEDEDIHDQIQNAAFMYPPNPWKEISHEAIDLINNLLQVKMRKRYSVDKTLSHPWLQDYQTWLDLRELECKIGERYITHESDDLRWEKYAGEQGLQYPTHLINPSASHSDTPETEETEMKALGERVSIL
details: at 10 µM
parameter measured: residual activity (%)
Answers are plain numbers, in %.

Here's what some known entries look like.
Cn1sc(=O)n(Cc2ccccc2)c1=O 64
O=C(O)/C=C/c1cc(Br)c(Br)c(Br)c1Br 64
N#C/C(=C1/Nc2ccccc2S1)c1ccnc(NCCc2cccnc2)n1 36
CC(C)c1nn(-c2c(Cl)cccc2Cl)c2nc(Cc3ccc(OCCO)cc3)[nH]c(=O)c12 95
O=C1NC(=O)C(c2c[nH]c3ccccc23)=C1c1c[nH]c2ccccc12 71
CC(C)(C)c1nc2c3ccc(F)cc3c3c(=O)[nH]ccc3c2[nH]1 16
CCN(CC)CCNC(=O)c1c(C)[nH]c(/C=C2\C(=O)Nc3ccc(Cl)cc32)c1C 4
Oc1cccc(-c2nc(N3CCOCC3)c3oc4ncccc4c3n2)c1 89
CC(C)[C@H](CO)Nc1nc(Nc2cc(N)cc(Cl)c2)c2ncn(C(C)C)c2n1 81
NC(=O)Nc1sc(-c2ccc(F)cc2)cc1C(N)=O 29

Incoming: Write down the reported residual activity of Cn1c2ccccc2c2c3c(c4c5ccccc5n(CCC#N)c4c21)CNC3=O , test system: Serine/threonine-protein kinase D1 (Homo sapiens) (UniProt Q15139).
Outgoing: 12

The values you see were collected from ChEMBL document CHEMBL2218924.
